Overview of reported pEC50 across a group of compounds:
System: STAT5 irfi-bla TF1 cells
Test: STAT5 Assay
Type: cell-based
Conditions: TF-1; stimulated with recombinant human erythropoietin (EPO) 10 ng/mL; beta-lactamase reporter
pEC50: −log10 of the molar value.
measurement_name: pEC50

> print(dat)
                                   compound  assay.result
1  CNc1ncc2nc([C@@H](C)O)n([C@H]3CC[C@H](CC#N)CC3)c2n1          5.28
2  [2H]C([2H])([2H])Nc1ncc2nc([C@@H](C)O)n([C@H]3CC[C@H](CC#N)CC3)c2n1          5.31
3  CNc1ncc2nc(C(C)O)n([C@H]3CC[C@H](CC#N)CC3)c2n1 (mixture of isomers)          4.89

----------
pEC50 listing for selected compounds.
Target: Human baculovirus-expressed Janus kinase (JAK) 3 (Homo sapiens, UniProt P52333)
Construct: All four purified enzymes contain only the catalytic domain; His-tag (N)
Sequence (P52333 822-1111 limits assumed): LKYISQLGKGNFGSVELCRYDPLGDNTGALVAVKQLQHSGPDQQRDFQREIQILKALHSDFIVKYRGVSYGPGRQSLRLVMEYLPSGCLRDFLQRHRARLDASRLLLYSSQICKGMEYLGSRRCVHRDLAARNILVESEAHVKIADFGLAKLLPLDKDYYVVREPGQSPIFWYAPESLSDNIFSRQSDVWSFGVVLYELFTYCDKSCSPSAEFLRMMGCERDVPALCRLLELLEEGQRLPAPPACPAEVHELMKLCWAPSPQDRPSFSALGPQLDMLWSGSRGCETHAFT
Experiment: JAK3 kinase assay (HTRF)
Settings: catalytic domain, ATP at Km (2 μM), 20 min
pEC50: −log10 of the molar value.
measurement_name: pEC50

> print(dat)
                                   compound  assay.result
1  CNc1ncc2nc([C@@H](C)O)n([C@H]3CC[C@H](CC#N)CC3)c2n1          6.22
2  CNc1ncc2nc(C(C)O)n([C@H]3CC[C@H](CC#N)CC3)c2n1 (mixture of isomers)          6.10
3  [2H]C([2H])([2H])Nc1ncc2nc([C@@H](C)O)n([C@H]3CC[C@H](CC#N)CC3)c2n1          6.29

----------
Target: Human baculovirus-expressed Janus kinase (JAK) 1 (Homo sapiens, UniProt P23458)
Construct: JAK1 (aa 850-1154) and TYK2 (aa 871-1187) are expressed with an N-terminally fused GST-tag; GST (N)
Sequence (P23458 850-1154): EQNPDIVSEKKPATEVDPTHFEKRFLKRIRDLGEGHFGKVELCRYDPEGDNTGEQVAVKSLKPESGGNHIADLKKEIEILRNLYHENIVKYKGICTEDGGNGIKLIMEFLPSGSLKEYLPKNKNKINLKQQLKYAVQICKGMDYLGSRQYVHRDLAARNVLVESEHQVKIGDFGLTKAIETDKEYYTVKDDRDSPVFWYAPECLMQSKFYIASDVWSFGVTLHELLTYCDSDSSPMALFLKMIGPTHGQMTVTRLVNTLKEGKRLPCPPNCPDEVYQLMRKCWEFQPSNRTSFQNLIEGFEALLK
Assay: JAK1 kinase assay (HTRF)
Conditions: catalytic domain, ATP at Km (7 μM), 40 min
pEC50: −log10 of the molar value.
measurement_name: pEC50

> print(dat)
                                   compound  assay.result
1  CNc1ncc2nc([C@@H](C)O)n([C@H]3CC[C@H](CC#N)CC3)c2n1          8.30
2  CNc1ncc2nc(C(C)O)n([C@H]3CC[C@H](CC#N)CC3)c2n1 (mixture of isomers)          8.05
3  [2H]C([2H])([2H])Nc1ncc2nc([C@@H](C)O)n([C@H]3CC[C@H](CC#N)CC3)c2n1          8.52

----------
Target: Human baculovirus-expressed tyrosin kinase (TYK) 2 (Homo sapiens, UniProt P29597)
Construct: JAK1 (aa 850-1154) and TYK2 (aa 871-1187) are expressed with an N-terminally fused GST-tag; GST (N)
Sequence (P29597 871-1187): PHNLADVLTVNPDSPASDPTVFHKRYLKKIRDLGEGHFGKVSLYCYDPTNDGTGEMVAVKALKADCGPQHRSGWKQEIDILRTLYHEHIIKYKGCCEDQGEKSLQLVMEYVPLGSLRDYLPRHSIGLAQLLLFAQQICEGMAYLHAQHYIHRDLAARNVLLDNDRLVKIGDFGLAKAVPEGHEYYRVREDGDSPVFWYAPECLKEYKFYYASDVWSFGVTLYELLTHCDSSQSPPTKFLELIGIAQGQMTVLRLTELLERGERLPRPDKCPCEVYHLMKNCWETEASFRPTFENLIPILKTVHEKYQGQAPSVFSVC
Assay: TYK2 kinase assay (HTRF)
Settings: catalytic domain, ATP at Km (13 μM), 20 min
pEC50: −log10 of the molar value.
Catalogue of pEC50 values
measurement_name: pEC50

> print(dat)
                                   compound  assay.result
1  CNc1ncc2nc([C@@H](C)O)n([C@H]3CC[C@H](CC#N)CC3)c2n1          7.72
2  [2H]C([2H])([2H])Nc1ncc2nc([C@@H](C)O)n([C@H]3CC[C@H](CC#N)CC3)c2n1          7.89
3  CNc1ncc2nc(C(C)O)n([C@H]3CC[C@H](CC#N)CC3)c2n1 (mixture of isomers)          7.33
